Each recorded value in this set is attributed to patent US20250051277A1.

# Format: physicochemical
# Experimental Setup: SGF with pepsin, pH 1.5, 37° C., 0.5 mM; time 24 h
Property Measured: Condition 1 Conversion (%)

{"Chemical String": "COc1ccc([C@@]23CCC(=NNC(=O)c4ccncc4)C[C@@H]2N(C)CC3)cc1OC", "Unit Label": "%", "Obs Value": 100}
{"Chemical String": "COc1ccc([C@@]23CCC(OC(=O)C(c4ccccc4)c4ccccc4)=C[C@@H]2N(C)CC3)cc1OC", "Unit Label": "%", "Obs Value": 0}
{"Chemical String": "COc1ccc([C@@]23CCC(=NNC(=O)COc4ccccc4)C[C@@H]2N(C)CC3)cc1OC", "Unit Label": "%", "Obs Value": 100}
{"Chemical String": "COc1ccc([C@@]23CCC(=NNc4ccc5ccccc5n4)C[C@@H]2N(C)CC3)cc1OC", "Unit Label": "%", "Obs Value": 100}
{"Chemical String": "COc1ccc([C@@]23CCC(=NNC(=O)c4ccc(Cl)cc4)C[C@@H]2N(C)CC3)cc1OC", "Unit Label": "%", "Obs Value": 100}
{"Chemical String": "COc1ccc([C@@]23CCC(=NOCCC45CC6CC(CC(C6)C4)C5)C[C@@H]2N(C)CC3)cc1OC", "Unit Label": "%", "Obs Value": 5.5}

###

# Format: physicochemical
# Experimental Setup: SGF with pepsin, pH 1.5, 37° C., 0.5 mM; time 5 min
Property Measured: Condition 1 Conversion (%)

{"Molecule": "COc1ccc([C@@]23CCC(OC(=O)C(c4ccccc4)c4ccccc4)=C[C@@H]2N(C)CC3)cc1OC", "Property Measured": "Condition 1 Conversion (%)", "Obs Value": 0}
{"Molecule": "COc1ccc([C@@]23CCC(=NNc4ccc(F)cc4)C[C@@H]2N(C)CC3)cc1OC", "Property Measured": "Condition 1 Conversion (%)", "Obs Value": 100}
{"Molecule": "COc1ccc([C@@]23CCC(=NOCCOc4ccccc4)C[C@@H]2N(C)CC3)cc1OC", "Property Measured": "Condition 1 Conversion (%)", "Obs Value": 0}
{"Molecule": "COc1ccc([C@@]23CC/C(=N\\NC(=O)c4cccnc4)C[C@@H]2N(C)CC3)cc1OC", "Property Measured": "Condition 1 Conversion (%)", "Obs Value": 100}
{"Molecule": "COc1ccc([C@@]23CCC(=NNc4ncccc4C)C[C@@H]2N(C)CC3)cc1OC", "Property Measured": "Condition 1 Conversion (%)", "Obs Value": 100}
{"Molecule": "COc1ccc([C@@]23CCC(OC(C)=O)=C[C@@H]2N(C)CC3)cc1OC", "Property Measured": "Condition 1 Conversion (%)", "Obs Value": 0}
{"Molecule": "COc1ccc(NC(=O)NN=C2CC[C@@]3(c4ccc(OC)c(OC)c4)CCN(C)[C@H]3C2)cc1", "Property Measured": "Condition 1 Conversion (%)", "Obs Value": 2.4}
{"Molecule": "COc1ccc([C@@]23CCC(=NNC(=O)Nc4cccnc4)C[C@@H]2N(C)CC3)cc1OC", "Property Measured": "Condition 1 Conversion (%)", "Obs Value": 100}
{"Molecule": "COc1ccc([C@@]23CCC(=NNC(=O)CC(CC(=O)O)CC(C)C)C[C@@H]2N(C)CC3)cc1OC (some centres unmarked)", "Property Measured": "Condition 1 Conversion (%)", "Obs Value": 95.02}
{"Molecule": "COc1ccc(C23CCC(=NNC(=O)Nc4ccccc4)C[C@@H]2N(C)CC3)cc1OC (stereo in doubt)", "Property Measured": "Condition 1 Conversion (%)", "Obs Value": 1}
{"Molecule": "COc1ccc([C@@]23CCC(=NNC(=O)c4ccc(Cl)cc4)C[C@@H]2N(C)CC3)cc1OC", "Property Measured": "Condition 1 Conversion (%)", "Obs Value": 100}
{"Molecule": "COc1ccc([C@@]23CCC(=NNC(=O)CC[C@H](NC(=O)c4ccc(NCc5cnc6nc(N)nc(O)c6n5)cc4)C(=O)O)C[C@@H]2N(C)CC3)cc1OC", "Property Measured": "Condition 1 Conversion (%)", "Obs Value": 100}
{"Molecule": "C/C=C(\\C)C(=O)OC1=C[C@@H]2N(C)CC[C@]2(c2ccc(OC)c(OC)c2)CC1", "Property Measured": "Condition 1 Conversion (%)", "Obs Value": 0}
{"Molecule": "COc1ccc([C@@]23CCC(OC(=O)C4CC4)=C[C@@H]2N(C)CC3)cc1OC", "Property Measured": "Condition 1 Conversion (%)", "Obs Value": 0}
{"Molecule": "COc1ccc([C@@]23CCC(=NNc4ccc5ccccc5n4)C[C@@H]2N(C)CC3)cc1OC", "Property Measured": "Condition 1 Conversion (%)", "Obs Value": 8.9}
{"Molecule": "COc1ccc([C@@]23CCC(=NNc4ccc(C(=O)O)cc4)C[C@@H]2N(C)CC3)cc1OC", "Property Measured": "Condition 1 Conversion (%)", "Obs Value": 0}
{"Molecule": "COc1ccc([C@@]23CC/C(=N\\NC(=O)NCCc4cccs4)C[C@@H]2N(C)CC3)cc1OC", "Property Measured": "Condition 1 Conversion (%)", "Obs Value": 0}
{"Molecule": "COc1ccc([C@]23CCN(C)[C@H]2CC2(CC3)OCCO2)cc1OC", "Property Measured": "Condition 1 Conversion (%)", "Obs Value": 0}
{"Molecule": "COc1ccc([C@]23CCN(C)[C@H]2CC2(CC3)OC[C@H]([C@@H](O)[C@@H](O)Cn3c4nc(=O)[nH]c(=O)c-4nc4cc(C)c(C)cc43)O2)cc1OC (some centres unmarked)", "Property Measured": "Condition 1 Conversion (%)", "Obs Value": 0}
{"Molecule": "COc1ccc([C@@]23CC/C(=N/NC(=O)Nc4ccccc4Cl)C[C@@H]2N(C)CC3)cc1OC", "Property Measured": "Condition 1 Conversion (%)", "Obs Value": 0}
{"Molecule": "CCON=C1CC[C@@]2(c3ccc(OC)c(OC)c3)CCN(C)[C@H]2C1", "Property Measured": "Condition 1 Conversion (%)", "Obs Value": 0}
{"Molecule": "COc1ccc([C@@]23CC/C(=N\\NC(=O)CCC(=O)O)C[C@@H]2N(C)CC3)cc1OC", "Property Measured": "Condition 1 Conversion (%)", "Obs Value": 100}
{"Molecule": "COc1ccc([C@@]23CCC(=NNC(=O)c4ccncc4)C[C@@H]2N(C)CC3)cc1OC", "Property Measured": "Condition 1 Conversion (%)", "Obs Value": 100}
{"Molecule": "COc1ccc([C@@]23CCC(OC(=O)C(C)(C)C)=C[C@@H]2N(C)CC3)cc1OC", "Property Measured": "Condition 1 Conversion (%)", "Obs Value": 0}
{"Molecule": "COc1ccc([C@@]23CCC(=NOCCO)C[C@@H]2N(C)CC3)cc1OC", "Property Measured": "Condition 1 Conversion (%)", "Obs Value": 0}
{"Molecule": "CCCC1CO[C@]2(CC[C@@]3(c4ccc(OC)c(OC)c4)CCN(C)C3C2)O1 (some centres unmarked)", "Property Measured": "Condition 1 Conversion (%)", "Obs Value": 0}
{"Molecule": "COc1ccc([C@@]23CC/C(=N\\NC(=O)NC[C@H]4CC[C@H](C(=O)O)CC4)C[C@@H]2N(C)CC3)cc1OC", "Property Measured": "Condition 1 Conversion (%)", "Obs Value": 0}
{"Molecule": "COc1ccc([C@@]23CCC(=NOCc4ccccc4)C[C@@H]2N(C)CC3)cc1OC", "Property Measured": "Condition 1 Conversion (%)", "Obs Value": 0}
{"Molecule": "COc1ccc([C@@]23CCC(=NOCCON=C4CC[C@@]5(c6ccc(OC)c(OC)c6)CCN(C)[C@H]5C4)C[C@@H]2N(C)CC3)cc1OC", "Property Measured": "Condition 1 Conversion (%)", "Obs Value": 0}
